Hello, the source for this data is paper PMC11537999, in case you need it.

Listed here are compounds together with their documented IC70 values from the original NPACT screen.
# Target under test: hPXR (Homo sapiens)
# Construct: expressed in transfected cells; provided by Dr. Taosheng Chen, St. Jude
# Sequence (O75469 whole entry): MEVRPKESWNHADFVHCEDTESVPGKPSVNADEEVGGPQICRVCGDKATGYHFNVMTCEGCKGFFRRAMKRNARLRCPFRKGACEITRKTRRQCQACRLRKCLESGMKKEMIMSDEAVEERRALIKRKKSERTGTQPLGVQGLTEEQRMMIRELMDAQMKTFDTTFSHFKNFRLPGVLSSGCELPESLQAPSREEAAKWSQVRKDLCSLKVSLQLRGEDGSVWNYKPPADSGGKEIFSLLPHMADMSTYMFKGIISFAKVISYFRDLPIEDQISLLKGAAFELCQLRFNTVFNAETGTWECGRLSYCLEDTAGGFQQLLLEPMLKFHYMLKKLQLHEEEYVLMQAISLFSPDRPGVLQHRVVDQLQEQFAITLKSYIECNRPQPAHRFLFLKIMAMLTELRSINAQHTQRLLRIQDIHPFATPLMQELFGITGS
# Procedure text: PXR luciferase reporter gene assay (qHTS antagonist mode, rifampicin co-treatment) in HepG2-CYP3A4-hPXR cells
# Format: cell-based
# Assay context: 2 μM rifampicin, used as treatment concentration in HepaRG cells
Assay metric: IC70 values from the original NPACT screen (µM)

Compound: COc1cc(-c2cn(C3CCc4c(F)cccc4N(CC(F)(F)F)C3=O)nn2)ccc1-n1cnc(C)c1 (stereo not shown)
Unit annotation: µM
Test result: 4
--
Compound: CC(C)(O)C1Cc2c(ccc(C(=O)CCc3ccccc3)c2O)O1 (stereo not shown)
Unit annotation: µM
Test result: 0.8
--
Compound: CC(C)(C)NC(=O)[C@@H](c1cccnc1)N(C(=O)c1ccco1)c1ccc(C(C)(C)C)cc1
Unit annotation: µM
Test result: 1
--
Compound: COC(=O)C[C@H]1C(C)(C)[C@H](OC(=O)c2ccccc2)C2CC3=C4CC(=O)O[C@@H](c5ccoc5)[C@]4(C)CCC3[C@@]1(C)C2=O (stereo partly shown)
Unit annotation: µM
Test result: 15
